Reference source for all entries: patent US20110275673A1

Assayed Target: UniProt:Q9NYA1
Sequence (Q9NYA1 whole entry): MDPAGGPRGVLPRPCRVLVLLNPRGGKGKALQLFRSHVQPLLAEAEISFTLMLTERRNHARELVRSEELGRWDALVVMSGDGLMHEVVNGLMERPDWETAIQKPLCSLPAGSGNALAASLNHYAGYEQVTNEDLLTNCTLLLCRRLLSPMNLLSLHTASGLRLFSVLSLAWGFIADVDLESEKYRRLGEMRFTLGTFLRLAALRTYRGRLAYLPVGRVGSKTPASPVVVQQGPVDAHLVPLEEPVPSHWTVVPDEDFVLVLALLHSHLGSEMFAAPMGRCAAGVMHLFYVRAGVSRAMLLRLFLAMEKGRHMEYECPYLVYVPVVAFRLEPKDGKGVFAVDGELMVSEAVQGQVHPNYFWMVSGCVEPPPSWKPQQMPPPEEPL
Procedure Details: Reporter Assay: sphingosine kinase conversion of fluorescein-labeled sphingosine, read on Lab Chip 3000
Details: 2 μM Fl-sphingosine, 25 μM ATP, 300 ng/ml SK1, 1 hour at room temperature; from percent conversion of substrate to product; read-out: SPHK-1 IC50 (n =)
pIC50: −log10 of the molar value.
Measurement Kind: pIC50

The cases that follow already have their pIC50 on record.
>  <Compound>
CC(C)CCCCCCc1ccc(NC(=O)[C@@H](N)[C@@H](C)O)cc1 [Example 16]

>  <Assayed Target>
UniProt:Q9NYA1

>  <pIC50>
6.82

$$$$
>  <Compound>
O=C(NCc1ccc2oc(CCCOc3ccc(F)cc3)cc2c1)[C@H]1NCC[C@@H]1O [Example 110]

>  <Assayed Target>
UniProt:Q9NYA1

>  <pIC50>
5.28

$$$$

(a) O=C(Nc1ccc(CCCCCCCOc2ccc(F)cc2)cc1)[C@H]1NCC[C@@H]1O [Example 25]
(b) CCCCCCCC(O)CCCc1ccc(NC(=O)[C@H]2NCC[C@@H]2O)cc1 (stereo partly shown) [Example 42]
**Q:** Of the two listed items, a and b , which carries the larger pIC50 figure? Identify your selection by its label.
**A:** b
(b: 6.92, a: 6.43)
